measurement.target: T1, human activated protein C (human, UniProt P04070 43-197; P04070 212-461)
T1 construct: In the plasma assays aPC is generated in human plasma with Protac; also called aPC; haPC
run.description: ELISA, plate coated with haPC 1 ug/mL, anti-hIgG-Fc-HRP
Recorded EC50 by entry

{"binder": "HAPC-14-10 (antibody, V domains shown, Whole IgG, backbone hIgG1; also called HPAC 14-10) VH: EVQLVESGGGLVQPGGSLRLSCAASGFTFSNYYLNWVRQAPGKGLEWVGDIRLKKNNYEKHYAESVKGRFTISRDDSKSITYLQMNSLRAEDTAVYYCAREGDTFDYWGQGTTVTVSS VL: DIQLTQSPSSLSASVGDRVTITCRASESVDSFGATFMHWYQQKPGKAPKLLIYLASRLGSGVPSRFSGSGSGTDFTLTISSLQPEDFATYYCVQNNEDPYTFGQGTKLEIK", "EC50 [nM]": 0.28}
{"binder": "HAPC-14-7 (antibody, V domains shown, Whole IgG, backbone hIgG1; also called HPAC 14-7) VH: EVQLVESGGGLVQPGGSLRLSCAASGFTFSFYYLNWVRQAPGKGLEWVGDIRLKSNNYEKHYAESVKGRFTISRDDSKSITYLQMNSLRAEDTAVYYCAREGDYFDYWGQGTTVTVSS VL: DIQLTQSPSSLSASVGDRVTITCRASESVDSFGATFMHWYQQKPGKAPKLLIYLASRLESGVPSRFSGSGSGTDFTLTISSLQPEDFATYYCQQNNEDPYTFGQGTKLEIK", "EC50 [nM]": 0.13}
{"binder": "HAPC-14-2 (antibody, V domains shown, Whole IgG, backbone hIgG1; also called HPAC 14-2) VH: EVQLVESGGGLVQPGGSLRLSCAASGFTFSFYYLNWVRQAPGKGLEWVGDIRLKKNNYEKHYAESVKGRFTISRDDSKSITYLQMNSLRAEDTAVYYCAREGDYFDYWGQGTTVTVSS VL: DIQLTQSPSSLSASVGDRVTITCRASESVDSFGATFMHWYQQKPGKAPKLLIYLASWLESGVPSRFSGSGSGTDFTLTISSLQPEDFATYYCVQNNEDPYTFGQGTKLEIK", "EC50 [nM]": 0.111}
